System: MOLT-4 leukemia
Test: NCI tumour cell line growth inhibition, 48 h
Value type: TGI (µM)
Give bare numbers, in µM.

{"Molecule smiles": "CCC1(CC)C(=O)N(C(=O)c2ccccc2)N(C(=O)c2ccc(Cl)cc2)C1=O", "Unit of measure": "µM", "Endpoint result": 47.7}

Give its TGI value. Item: "CCCCN1C(=O)c2c(Br)sc(Br)c2C1=O"
70.6

---

Tested on: SF-268 CNS
Experiment: NCI tumour cell line growth inhibition, 48 h
Please respond with reported TGI for every item in the list.

Examples with answers:
{"Compound": "O=C(c1ccccc1Cl)n1oc2ccccc2c1=O", "TGI": "> 100 µM"}
{"Compound": "CC(C)(C)c1cc(CCCCCCCC2(CCCCCCCc3cc(C(C)(C)C)cc(C(C)(C)C)c3)OC(COCCOCCCCCC#N)C(COCCOCCCCCC#N)O2)cc(C(C)(C)C)c1 (stereo not given)", "TGI": "> 100 µM"}
{"Compound": "O=C(O)c1ccccc1CC1Cc2cc3c(cc2C1)CCC3", "TGI": "> 100 µM"}
{"Compound": "COc1cc(N2C(=O)[C@H](c3ccccc3)C2c2ccc(SC)cc2)cc(OC)c1OC (stereo not given in full)", "TGI": "> 100 µM"}
{"Compound": "CCOC(=O)C(CCC(N)=O)(CCC(=O)OC)C(=O)OCC", "TGI": "> 100 µM"}

Take each entry in turn and give its TGI.
1. N#CC1=C2SCCN2C(=O)C(C#N)C12CCCCC2 (stereo not given)
2. COc1cc2cc(C(=O)N3CC(CCl)c4ccc([N+](=O)[O-])cc43)[nH]c2c(OC)c1OC (stereo not given)
3. O=C(Oc1c(Cl)cc(C2(c3cc(Cl)c(OC(=O)c4ccccc4)c(Cl)c3)CCCCC2)cc1Cl)c1ccccc1
4. CSc1nc(CO)c(CO)n1C
5. O=C1c2cccnc2C(=O)c2c1c(C(=O)OCCN1CCCCC1)c1ccccn21

["> 100 µM", "> 100 µM", "27.2 µM", "> 100 µM", "0.365 µM"]

---

Test system: K-562 leukemia
Assay: NCI tumour cell line growth inhibition, 48 h
Value type: TGI

{"Compound": "N#CC1=C2SCCN2C(=O)C(C#N)C12CCCCC2 (centres undefined)", "TGI": "> 100 µM"}
{"Compound": "C/C=C/C=C\\C=C/C(O)C(C)C(CCC(C)C1OC(=O)C=CC1C)OP(=O)(O)O (centres undefined)", "TGI": "0.905 µM"}

Take each entry in turn and give its TGI.
1. Cc1[nH]c(=O)[nH]c(=O)c1/C=C/C(=O)NC(CO)CS(=O)CS(C)=O (centres undefined)
2. Cc1ccc(NC(=O)CC/C(CC(=O)C(C)(C)C)=N\NC(=O)C[n+]2ccccc2)cc1C
3. O=[N+]([O-])c1cccc(-c2ncc3c(n2)-c2ccccc2C3)c1
4. C=C(C)[C@@H]1CCC2=C[C@H](C/C(C)=C\C3=CC(C)=C(O3)[C@H]1O)OC2=O
5. CNC(=O)C1(C#N)C(c2ccccc2)C(C#N)(C(=O)NC)C1c1ccccc1 (centres undefined)
6. CC[C@@]1(O)C(=O)OCc2c1cc1n(c2=O)Cc2cc3ccccc3nc2-1
7. CC(c1ccc2c(c1)CCC1C2CC2OC23CC=CC(=O)[C@]13C)C1C[C@]2(C)O[C@]2(C)[C@H](O)O1 (some centres undefined)

["135 µM", "> 100 µM", "> 100 µM", "> 100 µM", "> 100 µM", "45.6 µM", "> 100 µM"]

---

Tested on: SF-268 CNS
Test: NCI tumour cell line growth inhibition, 48 h
Value type: TGI

{"Compound": "C/C=C(/C)C(=O)O[C@H]1[C@H]2[C@@H]([C@@H](OC(C)=O)[C@H](C)C(=O)[C@@]34C[C@@H](C)C(=O)[C@]3(/C=C(\\C)[C@H]1OC(C)=O)O4)C2(C)C", "Value type": "TGI", "Endpoint result": "> 20 µM"}
{"Compound": "C[C@@H](NS(=O)(=O)c1ccc(NC(=O)c2ccccc2)cc1)C(=O)O", "Value type": "TGI", "Endpoint result": "> 100 µM"}
{"Compound": "COc1ccc(NC2=C(I)C(=O)c3ncccc3C2=O)cc1", "Value type": "TGI", "Endpoint result": "4.23 µM"}
{"Compound": "O=C1CSC(c2ccccc2)N1c1ccc(-n2c(-c3ccccc3)nc3ccccc3c2=O)cc1 (configuration not stated)", "Value type": "TGI", "Endpoint result": "> 100 µM"}
{"Compound": "O=c1cc(NNCc2ccccc2)[nH]c(=O)[nH]1", "Value type": "TGI", "Endpoint result": "> 100 µM"}
{"Compound": "O=C(OCCCl)C1OC(n2cc(F)c(=O)[nH]c2=O)CC1O (configuration not stated)", "Value type": "TGI", "Endpoint result": "> 100 µM"}

Lookup: TGI / SF-268 CNS / CC1C(=O)CC(c2cccs2)N(N=O)C1c1cccs1 (configuration not stated)
> 100 µM

---

System: SNB-19 CNS
Test: NCI tumour cell line growth inhibition, 48 h
Value type: TGI (µM)
One number for each entry, in µM.

Examples with answers:
{"Molecule smiles": "CN(C)C=Nc1c2ccccc2nc2ccccc12", "Endpoint result": 17.9}
{"Molecule smiles": "CC(=O)Nc1ccc(-c2nnc(SCC(=O)Nc3cccc(Cl)c3)o2)cc1", "Endpoint result": 39.4}
{"Molecule smiles": "CCC/C(Cl)=N/OC(=O)Nc1cc(C(F)(F)F)ccc1OC", "Endpoint result": 31.5}
{"Molecule smiles": "O=C(NCCCNCCN1C(=O)c2cccc3cc([N+](=O)[O-])cc(c23)C1=O)c1cc(-c2ccccc2)nc2ccccc12", "Endpoint result": 18.9}
{"Molecule smiles": "CN(C)CC(=O)Nc1ccc2ncnc(Nc3ccc(Oc4cccc(C(F)(F)F)c4)c(Cl)c3)c2c1", "Endpoint result": 14.4}

Take each entry in turn and give its TGI.
1. COc1ccc2nc3c([N+](=O)[O-])ccc4c3c(c2c1)NCCN4CCN(C)C
2. CN(C)Cc1cc(C(=O)/C=C/c2ccc(Cl)c(Cl)c2)cc(CN(C)C)c1O
3. CC(C)(Oc1ccc(Cl)cc1)C(=O)N(C(=O)N1CCCCC1)c1ccccc1

1. 2.27
2. 11.6
3. 42.5

---

Test system: OVCAR-3 ovarian
Test: NCI tumour cell line growth inhibition, 48 h
Value type: TGI

Examples with answers:
{"Compound": "O=C1C(=C([O-])c2ccccc2)C(=O)c2ccccc21.O=C1C(=C([O-])c2ccccc2)C(=O)c2ccccc21.[Mn+2]", "Assay target": "OVCAR-3 ovarian", "Endpoint result": "> 100 µM"}
{"Compound": "O=C(c1ccccc1Cl)n1oc2ccccc2c1=O", "Assay target": "OVCAR-3 ovarian", "Endpoint result": "> 100 µM"}
{"Compound": "CCOC(=O)C(NC(C)=O)(Nc1ccc(S(N)(=O)=O)cc1)C(F)(F)F (stereo unspecified)", "Assay target": "OVCAR-3 ovarian", "Endpoint result": "> 100 µM"}

Take each entry in turn and give its TGI.
1. Nc1ccc(O)c2c1C(=O)c1c(N)ccc(O)c1C2=O
2. NC(=S)N/N=C1\c2ccccc2-c2c(F)c(F)c(F)c(F)c21
3. COc1ccc2c(=O)cc(-c3ccc(OC)c(OC)c3OC)oc2c1
4. Cn1c(=O)c2nc3c(=O)n(C)c(=O)n(CC(N)=O)c3nc2n(C)c1=O
5. O=C(NCCCl)Nc1cccnc1
6. CC(c1ccc2c(c1)CCC1C2CC2OC23CC=CC(=O)[C@]13C)C1C[C@]2(C)O[C@]2(C)[C@H](O)O1 (stereo partly specified)

1. > 100 µM
2. 3.88 µM
3. > 87.6 µM
4. > 100 µM
5. 83.2 µM
6. > 100 µM

Take each entry in turn and give its TGI.
1. CCCCNS(=O)(=O)c1n[nH]c(=O)[nH]c1=O
2. Cc1cnc2oc3ccc(O)cc3c2c1-c1ccccc1

1: > 100 µM; 2: > 100 µM

---

System: EKVX NSCLC
Test: NCI tumour cell line growth inhibition, 48 h; in the data active = GI50 below about 0.43 µM; inactive = the rest
Choose one outcome from this list and give only that: active, inactive

Use these answered entries as a reference point.
{"Molecule": "COc1ccc(/C=C2\\COc3ccc(O)c(O)c3C2=O)c(OC)c1OC", "Assay target": "EKVX NSCLC", "Answer label": "inactive"}
{"Molecule": "COc1ccc(CCN(CC(=O)N(CC(N)=O)C2CCC[C@@H]2OCc2ccccc2)C(=O)CN(C(=O)CN(CCc2ccc(Cl)cc2)C(=O)CN(C(=O)CN(C)Cc2ccccc2F)[C@H](C)C2CCCCC2)[C@H](C)C2CCCCC2)cc1OC (stereo partly drawn)", "Assay target": "EKVX NSCLC", "Answer label": "inactive"}
{"Molecule": "COc1ccc(C(=NN=C(N)N)c2ccc(OC)cc2)cc1", "Assay target": "EKVX NSCLC", "Answer label": "inactive"}

Kindly provide the recorded test outcome for the following molecule: "N#Cc1c(NC(=O)c2ccc(F)cc2)sc2c1CCCC2"
inactive

Kindly provide the recorded test outcome for the following molecule: "CC1(C)N=C(N)N=C(N)N1c1ccc(Cl)cc1"
inactive

Kindly provide the recorded test outcome for the following molecule: CCOC(=O)C1=C(C)NC(=O)NC1CN1C(=O)c2ccccc2C1=O (stereo not drawn)
inactive

Kindly provide the recorded test outcome for the following molecule: "COC(=O)c1cc2oc(/C=C3/SC(=S)N(N)C3=O)cc2n1Cc1ccccc1"
inactive

Kindly provide the recorded test outcome for the following molecule: "O=C(COc1cccc(/C=C2\CSc3ccc(Cl)cc3C2=O)c1)c1ccc(Cl)cc1"
inactive

Kindly provide the recorded test outcome for the following molecule: "CC(C)(C)c1cc(/C=N/NC(=O)c2ccccc2NC(=O)c2cccs2)c(O)c(C(C)(C)C)c1"
active

Kindly provide the recorded test outcome for the following molecule: "O=C(c1ccc(C(F)(F)F)c(Cl)c1)N(Cc1ccc(Cl)cc1)c1ccc(-c2cc(C(F)(F)F)[nH]n2)c(O)c1"
inactive

Kindly provide the recorded test outcome for the following molecule: "O=C1C(=C([O-])c2ccccc2)C(=O)c2ccccc21.O=C1C(=C([O-])c2ccccc2)C(=O)c2ccccc21.[Mn+2]"
inactive

Kindly provide the recorded test outcome for the following molecule: "CC(=O)CC/C=C(\C)[C@H](O)[C@H](C)C(=O)O[C@H]1C[C@H](C)C=C2C=C[C@@]3(C)O[C@@H](O)CC(=O)[C@]3(C)[C@H]21"
inactive

Kindly provide the recorded test outcome for the following molecule: "C=CC(=O)N1C[C@@H]2CCOc3c(Cl)c(-c4c(O)cccc4F)c(F)c4ncnc(c34)N2C[C@H]1C"
inactive

Data origin: PubChem BioAssay (NCI)
